Here the recorded log10(EC50) is given for each entry.
# SYSTEM_UNDER_TEST: human GPR40 (Homo sapiens, UniProt O14842)
# Construct: expressed in transfected cells; host or cells: HEK cells stably expressing the aequorin reporter
# Sequence (O14842 whole entry): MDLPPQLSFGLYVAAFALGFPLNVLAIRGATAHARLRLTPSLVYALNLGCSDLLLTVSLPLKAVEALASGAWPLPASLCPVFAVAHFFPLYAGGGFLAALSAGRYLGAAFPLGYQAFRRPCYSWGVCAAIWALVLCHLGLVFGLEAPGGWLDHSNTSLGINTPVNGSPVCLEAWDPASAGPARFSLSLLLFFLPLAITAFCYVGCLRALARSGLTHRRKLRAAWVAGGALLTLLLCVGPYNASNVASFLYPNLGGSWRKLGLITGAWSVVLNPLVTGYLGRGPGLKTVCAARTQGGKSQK
# TEST: Inositol Phosphate Turnover (IP1) Assay 3
# Format: cell-based
# APPLIED_CONDITIONS: HEK cells stably expressing human GPR40
QUANTITY_NAME: log10(EC50) (log10 of the value in nM)

[[record]]
compound = "COc1cc(-c2ccc(C3CCc4ccc([C@H](C5CC5)[C@H](C)C(=O)O)cc4O3)cc2CN2C[C@H]3CC[C@@H]2C3)c(F)cn1 (stereo partly drawn) [Example 269]"
quantity_name = "log10(EC50)"
readout_value = 0.79

[[record]]
compound = "CCN(CC)Cc1cc(C2CCc3ccc([C@H](C4CC4)[C@H](C)C(=O)O)c(F)c3O2)ccc1-c1cc(OC)ncc1F (single isomer, unassigned) [Example 204]"
quantity_name = "log10(EC50)"
readout_value = 0.32

[[record]]
compound = "COc1cc(-c2ccc(C3CCc4ccc([C@H](C5CC5)[C@H](C)C(=O)O)cc4O3)c(CN3CCCCC3(C)C)c2)c(F)cn1 (mixture of isomers) [Example 128]"
quantity_name = "log10(EC50)"
readout_value = -0.80

[[record]]
compound = "COc1cc(-c2ccc(C3CCc4ccc([C@H](C5CCC5)[C@H](C)C(=O)O)cc4O3)cc2CN2CCCCC23CC3)c(F)cn1 (single isomer, unassigned) [Example 107]"
quantity_name = "log10(EC50)"
readout_value = -1.00

[[record]]
compound = "COc1cc(-c2ccc(C3CCc4ccc([C@H](C5CC5)[C@H](C)C(=O)O)cc4O3)cc2CN2CCC(C#N)CC2)c(F)cn1 (stereo partly drawn) [Example 271]"
quantity_name = "log10(EC50)"
readout_value = 0.41

[[record]]
compound = "COc1cc(-c2ccc(C3CCc4ccc([C@H](C5CC5)[C@H](C)C(=O)O)c(F)c4O3)cc2CN2CCC[C@H]2C)c(F)cn1 (single isomer, unassigned) [Example 210]"
quantity_name = "log10(EC50)"
readout_value = 0.49


The reported measurements were obtained from patent US10968193B2.
